Tested on: XF498
Assay: NCI tumour cell line growth inhibition, 48 h
The source made the active and inactive calls. Cut-off read from the data, not from the text of the source: active = GI50 up to about 1.1 µM and inactive = higher.
Experimental endpoint: GI50

Q: Which GI50 is reported for this compound? O=C1[C@@H]2C(c3ccc(Cl)cc3Cl)=NO[C@@H]2C(=O)N1c1ccc(Cc2ccc(N3C(=O)[C@H]4C(c5ccc(Cl)cc5Cl)=NO[C@H]4C3=O)cc2)cc1
Result: > 100 µM (inactive)

Q: Which GI50 is reported for this compound? Cc1cc(NS(=O)(=O)c2ccc(NC(=O)c3cccc4c(Nc5ccc(S(=O)(=O)Nc6cc(C)on6)cc5)c5ccccc5nc34)cc2)no1
Result: 42.3 µM (inactive)

Q: Which GI50 is reported for this compound? CN(CCO)c1nc(N)cc(=O)[nH]1
Result: > 100 µM (inactive)

Q: Which GI50 is reported for this compound? NNC(=O)CCC(=O)Nc1cc(Cl)c(Cl)cc1Cl
Result: > 100 µM (inactive)

Q: Which GI50 is reported for this compound? C#Cc1cc(CN(CC(=O)OC(C)(C)C)CC(=O)OC(C)(C)C)nc(CN(CC(=O)OC(C)(C)C)CC(=O)OC(C)(C)C)c1
Result: 11.6 µM (inactive)

====

Answer each item with its documented GI50.
Tested on: T47D
Assay: NCI tumour cell line growth inhibition, 48 h
The source made the active and inactive calls. Rule as the data show it: active = GI50 up to about 1.1 µM and inactive = higher.

Q: Which GI50 is reported for this molecule? CCOc1cc(C(=O)O)c2c(ccc3ccc(OC)c(OC)c32)c1OC
Result: > 100 µM (inactive)

Q: Which GI50 is reported for this molecule? CCCC(=O)NC(Nc1cc(C)ccn1)(C(=O)OCC)C(F)(F)F (stereo unspecified)
Result: > 100 µM (inactive)

Q: Which GI50 is reported for this molecule? OC1CCCCCCCCCCC1[S+]1CCCC1.O[B-](F)(F)F (stereo unspecified)
Result: > 100 µM (inactive)

Q: Which GI50 is reported for this molecule? O=C1c2cc([N+](=O)[O-])ccc2NC2C(O)c3ccccc3N12 (stereo unspecified)
Result: 14.2 µM (inactive)

Q: Which GI50 is reported for this molecule? C(=N\Cc1ccccc1)/c1ccccc1-c1ccccc1/C=N/Cc1ccccc1
Result: 4.99 µM (inactive)

Q: Which GI50 is reported for this molecule? CSc1c(C(=O)Nc2ccccc2)c(N)n(N)c(=O)c1C#N
Result: > 100 µM (inactive)

Q: Which GI50 is reported for this molecule? CC(=O)OCC1OC(OCC2OC(N3C(=S)N[C@H]([C@@H](O)[C@H](O)[C@H](O)CO)[C@H]3O)C(OC(C)=O)C(OC(C)=O)C2OC(C)=O)C(OC(C)=O)C(OC(C)=O)C1OC(C)=O (stereo partly specified)
Result: 61.8 µM (inactive)

Q: Which GI50 is reported for this molecule? CC1=C([S+]([O-])c2ccc(C)cc2)CCC2(CCCCO2)O1 (stereo unspecified)
Result: > 100 µM (inactive)

Q: Which GI50 is reported for this molecule? CCOC(=O)c1nc2ccc(C(F)(F)F)cc2nc1Oc1cc(OC)cc(OC)c1
Result: > 100 µM (inactive)

Q: Which GI50 is reported for this molecule? C[N+](C)(C)C(C1=CCCC1=O)c1ccccc1 (stereo unspecified)
Result: 43.8 µM (inactive)

Q: Which GI50 is reported for this molecule? O=c1[nH]c(=O)n(C2OC(CO)C(O)C2O)cc1Oc1ccccc1 (stereo unspecified)
Result: > 100 µM (inactive)

====

Answer each item with its documented GI50.
Tested on: HOP-62
Assay: NCI tumour cell line growth inhibition, 48 h
Where a name gives a salt, the structure may show the parent alone. The source made the active and inactive calls. No stated cut-off is given here; in the data, active = GI50 up to about 1.1 µM and inactive = higher.

Q: Which GI50 is reported for this molecule? CC(=O)Oc1cc2c(cc1OCC(F)(F)F)[C@H]1CC[C@]3(C)[C@@H](OC(C)=O)CC[C@H]3[C@@H]1CC2=O
Result: 25.1 µM (inactive)

Q: Which GI50 is reported for this molecule? CC(=O)OC[C@@]1(C)[C@@H]2[C@@H]3[C@@]4(CO[C@]3(C)C(=O)[C@@]3(O)C[C@H](C)[C@H](OC(C)=O)[C@@H]3[C@H]4OC(C)=O)[C@H](OC(=O)c3ccccc3)C[C@@H]21
Result: > 100 µM (inactive)

Q: Which GI50 is reported for this molecule? Cc1c(-c2nc(N)nc(C3CC3)c2C)nc(N)nc1C1CC1
Result: > 100 µM (inactive)

Q: Which GI50 is reported for this molecule? CCOc1ccccc1NC(=O)CCC(=O)OC
Result: > 100 µM (inactive)

Q: Which GI50 is reported for this molecule? O=c1nc2n(cc1/C=C\Br)C1CC(O)C(CO2)O1 (centres undefined)
Result: > 100 µM (inactive)

Q: Which GI50 is reported for this molecule? Cc1cc(N)ccc1C=O
Result: > 100 µM (inactive)

Q: Which GI50 is reported for this molecule? CC1=C([S+]([O-])c2ccc(C)cc2)CCC2(CCCCO2)O1 (centres undefined)
Result: > 100 µM (inactive)

Q: Which GI50 is reported for this molecule? CC(C)(C)N/N=N/c1cn(C2OC(CO)C(O)C2O)c(=O)[nH]c1=O (centres undefined)
Result: > 100 µM (inactive)

Q: Which GI50 is reported for this molecule? CC(C)CN1CC(C)C(=O)NC1=O (centres undefined)
Result: > 100 µM (inactive)

Q: Which GI50 is reported for this molecule? O=C1[C@H](c2ccccc2)C2c3ccccc3CCN12 (some centres undefined)
Result: > 10 µM (inactive)

Q: Which GI50 is reported for this molecule? C=CCSS/C=C/C[S+]([O-])CC=C (centres undefined) [AJOENE]
Result: > 100 µM (inactive)

Q: Which GI50 is reported for this molecule? CC1=C(NC(=O)/C(=N/NC(=S)NN)C2C(=O)CC(C)(C)CC2=O)C(=O)c2ccccc2C1=O
Result: 16.1 µM (inactive)

Q: Which GI50 is reported for this molecule? Cc1cc(OP2(=O)NCc3ncccc3O2)ccc1Cl (centres undefined)
Result: > 100 µM (inactive)

Q: Which GI50 is reported for this molecule? Nc1cccc(-c2cc(O)c3cc4c(cc3n2)OCO4)c1
Result: 1.87 µM (inactive)

Q: Which GI50 is reported for this molecule? CC(C)OC(=O)C1=C2c3ncccc3C(=O)N2[C@@H](Cl)[C@H](Cl)[C@H]1Cl
Result: > 100 µM (inactive)

Q: Which GI50 is reported for this molecule? Cc1ccc(NC(=O)C2C(=O)C(=O)N(c3ccc(C)cc3)C2=O)cc1 (centres undefined)
Result: 93.3 µM (inactive)

Q: Which GI50 is reported for this molecule? CN(C)CCNc1ccc2c(=O)n(CCN(C)C)c(=O)n3c4ccc(N)cc4c(=O)c1c23
Result: 0.109 µM (active)

Q: Which GI50 is reported for this molecule? O=C1[C@@H]2C(c3ccc(Cl)cc3Cl)=NO[C@@H]2C(=O)N1c1ccc(Cc2ccc(N3C(=O)[C@H]4C(c5ccc(Cl)cc5Cl)=NO[C@H]4C3=O)cc2)cc1
Result: > 100 µM (inactive)

Q: Which GI50 is reported for this molecule? O=c1[nH]c(=O)n(C2OC(CO)C(O)C2O)cc1Oc1ccccc1 (centres undefined)
Result: > 100 µM (inactive)

Q: Which GI50 is reported for this molecule? CCCCCCCCCCN(CCCCCCCCCC)C(=O)COc1c2cc(C(C)(C)C)cc1Cc1cc(C(C)(C)C)cc(c1OCC(=O)N(CCCCCCCCCC)CCCCCCCCCC)Cc1cc(C(C)(C)C)cc(c1OCC(=O)N(CCCCCCCCCC)CCCCCCCCCC)Cc1cc(C(C)(C)C)cc(c1OCC(=O)N(CCCCCCCCCC)CCCCCCCCCC)C2
Result: 16.1 µM (inactive)

Q: Which GI50 is reported for this molecule? NNC(=O)CCC(=O)Nc1cc(Cl)c(Cl)cc1Cl
Result: > 100 µM (inactive)

Q: Which GI50 is reported for this molecule? O=C1Oc2ccccc2C(=O)/C1=C/N1C(=O)N/C(=C\c2cccc(O)c2)C1=O
Result: 69.7 µM (inactive)

Q: Which GI50 is reported for this molecule? CC1=CC=NN2C(=O)[C@H](C)C2C1 (some centres undefined)
Result: > 100 µM (inactive)

Q: Which GI50 is reported for this molecule? COc1ccc(SCc2cc(OC)ccc2OC)cc1
Result: 59.8 µM (inactive)

Q: Which GI50 is reported for this molecule? CN(C)c1ccc(/C=N/NC(=S)Nc2ccccc2)cc1
Result: 96.4 µM (inactive)

Q: Which GI50 is reported for this molecule? O=C1NC(=O)C(Cc2ccccc2)(c2cccnc2)N1 (centres undefined)
Result: > 100 µM (inactive)

Q: Which GI50 is reported for this molecule? S=C(Nc1ccccc1)N1N=C2c3ccccc3CC[C@H]2[C@@H]1c1ccccc1
Result: 4.22 µM (inactive)

Q: Which GI50 is reported for this molecule? O=C1C(c2ccc(Cl)cc2)=[N+]([O-])c2ccccc21
Result: 29.4 µM (inactive)

Q: Which GI50 is reported for this molecule? CC1CN=C(Nc2cccc(F)c2)S1 (centres undefined)
Result: > 100 µM (inactive)

Q: Which GI50 is reported for this molecule? CCOC(=O)Cc1nnc2c(-c3ccccc3)nc3ccccc3n12
Result: 14.4 µM (inactive)

Q: Which GI50 is reported for this molecule? NCCCNCCCCNCCCN [SPERMINE TETRAHYDROCHLORIDE]
Result: > 100 µM (inactive)

Q: Which GI50 is reported for this molecule? CCOC(=O)C1=CC(C)(C(=O)OCC)Nc2c(nc(OC)n(C)c2=O)N1 (centres undefined)
Result: > 10 µM (inactive)

Q: Which GI50 is reported for this molecule? CC(=O)Oc1ccc2c(c1)[nH]c1c3ccc(OC(C)=O)cc3oc(=O)c21
Result: 29.3 µM (inactive)

Q: Which GI50 is reported for this molecule? O=C(Cc1nc2ccccc2s1)Nc1ccc(Cl)cc1
Result: > 100 µM (inactive)

Q: Which GI50 is reported for this molecule? CCOC(=O)c1nc2ccc(C(F)(F)F)cc2nc1Oc1cc(OC)cc(OC)c1
Result: 65.6 µM (inactive)

Q: Which GI50 is reported for this molecule? CC1=C(C(=O)OCCc2ccc([N+](=O)[O-])cc2)C(c2ccccc2C(F)(F)F)C(C(=O)OC(C)C)=C(C)N1 (centres undefined)
Result: 3.51 µM (inactive)

Q: Which GI50 is reported for this molecule? CC(C)(C)c1cc2nc(c1)C(C(F)(F)F)(C(F)(F)F)OB(Br)OC2(C(F)(F)F)C(F)(F)F
Result: 0.0367 µM (active)

Q: Which GI50 is reported for this molecule? N#CCOc1cccc(C2(N3CC=CCC3)CCCCC2)c1
Result: > 100 µM (inactive)

Q: Which GI50 is reported for this molecule? O=C(NC(CO)CO)c1ccc2cc(C(=O)N3CC(CCl)c4ccc([N+](=O)[O-])cc43)[nH]c2c1 (centres undefined)
Result: > 100 µM (inactive)
